# Test system: ragweed
# procedureDetails: Test C postemergence
# Type: in vivo, Ambrosia elatior
# experimentalSetup: 125 g ai/ha, postemergence; visual rating, scale 0 to 100 (0 no effect, 100 complete control)
resultType: Plant response rating, Ragweed

Look over these answered cases.
# compound, observed
rows = [
    ("FC(F)c1cnn(-c2c(Cl)cccc2Oc2ncc(Cl)cn2)c1 [Compound 192]", 45),
    ("Clc1cnc(Oc2cccc(Cl)c2-n2cc(Cl)cn2)nc1 [Compound 220]", 25),
    ("Cc1cnc(Oc2cccc(C#N)c2-n2cc(C(F)(F)F)cn2)nc1 [Compound 180]", 70),
]

# Plant response rating, Ragweed of FCc1cn(-c2ccccc2Oc2ncc(Cl)cn2)nn1 [Compound 123] = 75

# Plant response rating, Ragweed of FC(F)c1cccc(Oc2ncc(Br)cn2)c1-n1cc(C(F)(F)F)cn1 [Compound 163] = 60

# Plant response rating, Ragweed of Clc1cnc(Oc2cccc(Cl)c2-n2cc(I)cn2)nc1 [Compound 181] = 45
